Origin of values: ChEMBL document CHEMBL1961873

# System tested: Fibroblast growth factor receptor 3 (Homo sapiens) (UniProt P22607);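 also: values reported are mean percent inhibition of FGFR3 activity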
# Sequence (P22607 23-806 limits assumed): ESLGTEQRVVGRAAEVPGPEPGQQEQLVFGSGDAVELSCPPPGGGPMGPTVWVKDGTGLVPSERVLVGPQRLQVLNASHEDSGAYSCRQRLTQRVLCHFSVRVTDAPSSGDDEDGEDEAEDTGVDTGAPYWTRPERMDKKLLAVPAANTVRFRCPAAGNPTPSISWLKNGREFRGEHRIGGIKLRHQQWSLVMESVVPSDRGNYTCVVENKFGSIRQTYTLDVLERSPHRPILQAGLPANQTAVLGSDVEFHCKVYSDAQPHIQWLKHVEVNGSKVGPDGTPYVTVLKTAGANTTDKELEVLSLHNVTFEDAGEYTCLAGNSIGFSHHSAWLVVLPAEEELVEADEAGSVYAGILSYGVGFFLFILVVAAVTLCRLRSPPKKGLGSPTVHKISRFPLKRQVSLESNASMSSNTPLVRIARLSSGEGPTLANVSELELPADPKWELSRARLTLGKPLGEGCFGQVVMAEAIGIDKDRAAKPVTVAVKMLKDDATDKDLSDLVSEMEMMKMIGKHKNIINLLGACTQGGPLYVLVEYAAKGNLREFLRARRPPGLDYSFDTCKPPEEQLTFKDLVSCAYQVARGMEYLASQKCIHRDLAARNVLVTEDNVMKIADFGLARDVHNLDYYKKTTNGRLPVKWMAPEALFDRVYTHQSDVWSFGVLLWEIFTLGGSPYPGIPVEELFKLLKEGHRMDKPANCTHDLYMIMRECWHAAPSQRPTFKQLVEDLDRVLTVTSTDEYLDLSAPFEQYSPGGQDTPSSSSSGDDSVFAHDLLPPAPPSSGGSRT
# Measurement setup: at 1 µM
Outcome measure: inhibition (%)
Give the value in % but do not write % after it.

// below: answered compounds
Compound	Experimental result
Oc1cccc(-c2nc(-c3ccccc3)[nH]c2-c2ccncc2)c1	5.69
CCCN1CCCC(c2ccc(Nc3nc(Nc4cc(F)ccc4C(N)=O)c4cc[nH]c4n3)c(OC)c2)C1 (stereo unspecified)	4.56
CCS(=O)(=O)c1ccc(OC)c(Nc2nccc(N(C)c3ccc4c(C)n[nH]c4c3)n2)c1	54.7
CCn1c(-c2nonc2N)nc2ccc(F)cc21	5.83
CN(C)C(=O)O[C@H]1CN[C@H](C#Cc2cc3ncnc(Nc4ccc(OCc5cccc(F)c5)c(Cl)c4)c3s2)C1	5.64

Look up inhibition for this compound: COc1cccc(-n2ncc3c(N/N=C/c4ccc(S(C)(=O)=O)cc4)ncnc32)c1
4.08

Same thing, different compound: NS(=O)(=O)c1ccc(-c2cc3ccncc3cc2OCc2ccccc2)cc1
2.76

Same thing, different compound: Cc1ccc(C(=O)NC2CC2)cc1-c1ccc2[nH]ncc2c1
0.28

Same thing, different compound: NS(=O)(=O)c1ccc(Nc2cc(-c3cccc(O)c3)n[nH]2)cc1
13.4

Same thing, different compound: COC(=O)c1cncc(/C=C/c2c(C)cc(O)cc2C)c1
4.87

Same thing, different compound: N#Cc1cccc(Nc2nccc(-c3cnn4ncccc34)n2)c1
17.2

Same thing, different compound: CCn1c(-c2nonc2N)nc2c(C#CC(C)(C)O)nc(OCCNC)cc21
3.95

Same thing, different compound: c1ccc(Nc2ncc(-c3ccccc3)o2)cc1
6.62

* * *

# System tested: Calcium/calmodulin-dependent protein kinase type 1D (Homo sapiens);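 also: reported figure is the mean percent inhibition of CAMK1D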
# Measurement setup: at 1 µM
Outcome measure: inhibition (%)
Give the value in % but do not write % after it.

// below: answered compounds
Mol smiles	inhibition (%)
O=C1Nc2ccccc2/C1=C/Nc1ccc2[nH]c(=O)[nH]c2c1	1.07
Cc1ccc2c(-c3ccnc(Nc4ccc5c(c4)OCCO5)n3)c(-c3ccc(C(F)(F)F)cc3)nn2n1	9.99
NS(=O)(=O)c1cccc(Nc2cc(-c3ccc(F)cc3)n[nH]2)c1	-0.05

Look up inhibition for this compound: Nc1nccc(C#Cc2cncnc2Nc2ccc(OCc3cccc(F)c3)c(Cl)c2)n1
2.27

Same thing, different compound: Cc1ccc(C(=O)NC2CC2)cc1-c1ccc2[nH]ncc2c1
0.06

Same thing, different compound: CS(=O)(=O)CCNCc1nc(-c2ccc3ncnc(Nc4ccc(OCc5cccc(C(F)(F)F)c5)cc4)c3c2)cs1
2.37

Same thing, different compound: Cc1cc(O)cc(C)c1/C=C/c1cncc(C(=O)N(C)C)c1
2.29

Same thing, different compound: ON=C1CCc2cc(-c3nc(C4CCNCC4)[nH]c3-c3ccncc3)ccc21
11.8

Same thing, different compound: CN(C)c1cc2c(Nc3ccc4c(cnn4Cc4ccccc4)c3)ncnc2cn1
0.88

Same thing, different compound: Cc1cc(-c2ccccn2)cc(C)c1/C=C/c1cncc(-c2nn[nH]n2)c1
0.67

Same thing, different compound: COc1cccc(-n2ncc3c(N/N=C/c4ccc(S(C)(=O)=O)cc4)ncnc32)c1
0.51

* * *

# System tested: Tyrosine-protein kinase receptor UFO (Homo sapiens) (UniProt P30530)
# Sequence (P30530 whole entry): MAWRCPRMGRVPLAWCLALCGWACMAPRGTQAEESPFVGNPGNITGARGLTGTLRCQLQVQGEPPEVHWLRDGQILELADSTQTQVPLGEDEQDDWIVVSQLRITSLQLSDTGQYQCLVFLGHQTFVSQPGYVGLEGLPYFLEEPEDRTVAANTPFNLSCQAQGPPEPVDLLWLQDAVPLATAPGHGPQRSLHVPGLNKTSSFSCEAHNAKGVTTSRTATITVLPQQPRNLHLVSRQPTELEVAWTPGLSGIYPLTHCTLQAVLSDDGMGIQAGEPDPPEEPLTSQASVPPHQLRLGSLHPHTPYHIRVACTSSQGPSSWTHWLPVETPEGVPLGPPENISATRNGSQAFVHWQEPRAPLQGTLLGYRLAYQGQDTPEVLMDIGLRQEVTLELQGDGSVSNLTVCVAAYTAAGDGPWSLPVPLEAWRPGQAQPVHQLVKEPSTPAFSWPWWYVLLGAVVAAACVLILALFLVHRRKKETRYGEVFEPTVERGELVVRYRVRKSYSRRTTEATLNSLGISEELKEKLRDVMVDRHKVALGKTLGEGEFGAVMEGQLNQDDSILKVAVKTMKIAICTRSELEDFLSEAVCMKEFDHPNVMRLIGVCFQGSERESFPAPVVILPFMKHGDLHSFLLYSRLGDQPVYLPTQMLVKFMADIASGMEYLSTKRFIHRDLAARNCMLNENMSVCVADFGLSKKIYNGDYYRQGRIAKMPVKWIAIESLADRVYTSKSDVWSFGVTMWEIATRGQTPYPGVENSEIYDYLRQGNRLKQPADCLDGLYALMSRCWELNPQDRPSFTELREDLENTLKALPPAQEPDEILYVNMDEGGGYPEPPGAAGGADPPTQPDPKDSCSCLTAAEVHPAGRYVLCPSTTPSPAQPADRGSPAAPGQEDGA
# Measurement setup: at 1 µM
# Description: GSK_PKIS: AXL mean inhibition at 1 uM [Nanosyn]
Outcome measure: inhibition (%)
Give the value in % but do not write % after it.

Mol smiles	Quantity unit	inhibition
Nc1nccc(-c2c(-c3ccc(F)cc3)nn3cc(C(F)(F)F)ccc23)n1	%	5.17
COc1cccc(-n2ncc3c(N/N=C/c4ccc(S(C)(=O)=O)cc4)ncnc32)c1	%	1.34
COc1cc(Nc2nccc(-c3cnn4ncccc34)n2)cc(OC)c1	%	20.7

Look up inhibition for this compound: CCOc1nccc2c1nc(-c1nonc1N)n2CC
-0.05

Same thing, different compound: Oc1cccc(-c2nc(-c3ccccc3)[nH]c2-c2ccncc2)c1
-0.19

Same thing, different compound: CN(C)C(=O)O[C@H]1CN[C@H](C#Cc2cc3ncnc(Nc4ccc(OCc5cccc(F)c5)c(Cl)c4)c3s2)C1
-1.68

Same thing, different compound: Cc1ccc(Nc2ccnc(Nc3cccc(C(N)=O)c3)n2)cc1O
0.42

Same thing, different compound: N#Cc1c(NC(=O)c2ccccc2F)sc2c1CCCC2
2.38

Same thing, different compound: OCc1ccc(-c2nc(-c3ccccn3)c(-c3ccc4c(c3)OCO4)[nH]2)cc1
-3.37

* * *

Each record here notes measured inhibition.
# System tested: SRSF protein kinase 3 (Homo sapiens);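 also: values are mean inhibition of MSSK1 (alias of SRPK3)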
# Measurement setup: at 1 µM
Give the value in % but do not write % after it.

// below: answered compounds
Compound	Outcome measure	Experimental result
CCCN1CCCC(c2ccc(Nc3nc(Nc4cc(F)ccc4C(N)=O)c4cc[nH]c4n3)c(OC)c2)C1 (stereo not given)	inhibition	28.2
NS(=O)(=O)c1cccc(Nc2cc(-c3ccc(F)cc3)n[nH]2)c1	inhibition	3.28
Cc1cc(Cl)cc2c1NC(=O)C2=NNc1ccc(S(N)(=O)=O)cc1	inhibition	-0.13
FC(F)(F)c1ccc(-c2nn3ncccc3c2-c2ccnc(Nc3ccc4c(c3)OCCO4)n2)cc1	inhibition	1.12
Cc1nc(-c2ccccc2)n2nc(NCCCN3CCOCC3)ncc12	inhibition	-0.34

Quick check: inhibition on SRSF protein kinase 3 (Homo sapiens), item COc1ccc2ncnc(Nc3ccc(OCc4ccccc4)cc3)c2c1 ?
0.73

Same thing, different compound: CN(C)CCCn1c(-c2nonc2N)nc2cnccc21
-1.05

Same thing, different compound: N#Cc1c(NC(=O)c2ccccc2F)sc2c1CCCC2
-0.38

Same thing, different compound: CN1CCN(C(=O)c2ccc(NC(=O)Nc3ccc(N(C)c4ccnc(Nc5ccc(CS(C)(=O)=O)cc5)n4)cc3)cc2)CC1
-1.14

Same thing, different compound: NC(=O)c1cccc(Nc2nccc(Nc3cccc(F)c3)n2)c1
-0.91

* * *

# System tested: Mitogen-activated protein kinase 11 (Homo sapiens) (UniProt Q15759);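 also: values are mean percent inhibition of p38beta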
# Sequence (Q15759 whole entry): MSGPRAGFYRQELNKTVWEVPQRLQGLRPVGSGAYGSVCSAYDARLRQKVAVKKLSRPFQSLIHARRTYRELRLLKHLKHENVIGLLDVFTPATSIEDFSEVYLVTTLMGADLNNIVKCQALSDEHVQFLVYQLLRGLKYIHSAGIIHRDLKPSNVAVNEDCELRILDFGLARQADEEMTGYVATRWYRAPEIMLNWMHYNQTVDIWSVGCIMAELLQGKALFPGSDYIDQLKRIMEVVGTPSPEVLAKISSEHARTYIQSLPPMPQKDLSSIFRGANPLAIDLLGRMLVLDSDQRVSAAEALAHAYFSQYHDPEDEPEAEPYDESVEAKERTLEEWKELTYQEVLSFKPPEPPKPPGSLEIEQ
# Measurement setup: at 1 µM
Outcome measure: inhibition (%)
Give the value in % but do not write % after it.

Quick check: inhibition on Mitogen-activated protein kinase 11 (Homo sapiens) (UniProt Q15759), item COC(=O)Nc1nc2cc(Oc3ccc(NC(=O)Nc4cccc(Br)c4)cc3)ccc2[nH]1 ?
17

* * *

# System tested: Testis-specific serine/threonine-protein kinase 1 (Homo sapiens) (UniProt Q9BXA7);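 also: reported value is the mean inhibition, from the GSK PKIS kinase screening panel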
# Sequence (Q9BXA7 whole entry): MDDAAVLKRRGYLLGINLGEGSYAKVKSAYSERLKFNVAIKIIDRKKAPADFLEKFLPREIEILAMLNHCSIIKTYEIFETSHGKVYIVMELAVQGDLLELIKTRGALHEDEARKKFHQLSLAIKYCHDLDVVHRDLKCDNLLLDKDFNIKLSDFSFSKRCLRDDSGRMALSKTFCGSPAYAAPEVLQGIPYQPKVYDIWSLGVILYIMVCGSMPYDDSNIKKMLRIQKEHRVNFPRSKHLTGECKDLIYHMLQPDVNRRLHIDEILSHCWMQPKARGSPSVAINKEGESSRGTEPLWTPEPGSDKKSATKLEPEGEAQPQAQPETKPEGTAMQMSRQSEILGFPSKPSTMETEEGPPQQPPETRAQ
# Measurement setup: at 1 µM
Outcome measure: inhibition (%)
Give the value in % but do not write % after it.

// below: answered compounds
Mol smiles	Quantity unit	inhibition
NS(=O)(=O)c1ccc(N/N=C2\C(=O)Nc3ccc(Cl)cc32)cc1	%	6.32
COc1cc2ncnc(Nc3ccc4c(cnn4Cc4ccccc4)c3)c2cc1OC	%	3.63
COc1cc2ncnc(Nc3ccc(C)c(O)c3)c2cc1OC	%	3.21

Look up inhibition for this compound: O=C(Nc1ccc(Oc2ccc3[nH]c(NC(=O)c4ccco4)nc3c2)cc1)Nc1cc(C(F)(F)F)ccc1F
0.2

Same thing, different compound: CN(C)CCCn1c(-c2nonc2N)nc2cnccc21
7.78

Same thing, different compound: N#Cc1cccc(Nc2nccc(-c3cnn4ncccc34)n2)c1
10.6

Same thing, different compound: CCS(=O)(=O)c1ccc(OC)c(Nc2ncc(-c3cccc(OC)c3)o2)c1
-0.25

* * *

# System tested: Tyrosine-protein kinase Fgr (Homo sapiens);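 also: reported values are mean percent inhibition of FGR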
# Measurement setup: at 0.1 µM
Outcome measure: inhibition (%)
Give the value in % but do not write % after it.

// below: answered compounds
Mol smiles	Experimental result
Cc1ccc(C(=O)NC2CC2)cc1-c1ccc2[nH]ncc2c1	-1.47
ON=C1CCc2cc(-c3nc(C4CCNCC4)[nH]c3-c3ccncc3)ccc21	-1.48
c1ccc(Cc2nc3ccc(Nc4ncnc5ccccc45)cc3[nH]2)cc1	5.51
Nc1nccc(-c2c(-c3ccc(F)cc3)ncn2CCCN2CCOCC2)n1	2.89
CCn1c(-c2nonc2N)nc2c(C#CC(C)(C)O)nc(OCCNC)cc21	0.15
COc1cccc(-n2ncc3c(N/N=C/c4ccc(S(C)(=O)=O)cc4)ncnc32)c1	28.5
CN(C)c1cc2c(Nc3ccc4c(cnn4Cc4ccccc4)c3)ncnc2cn1	9.23
NS(=O)(=O)c1ccc(NC=C2C(=O)Nc3ccc4ncsc4c32)cc1	6.25

Look up inhibition for this compound: COc1ccc2ncnc(Nc3ccc(OCc4ccccc4)cc3)c2c1
3.7

Same thing, different compound: Oc1cccc(-c2nc(-c3ccccc3)[nH]c2-c2ccncc2)c1
5.71

Same thing, different compound: COc1ccc(-c2nn3ncccc3c2-c2ccnc(Nc3cccc(C(F)(F)F)c3)n2)cc1
10.2

Same thing, different compound: COc1cccc(-n2ncc3c(N/N=C/c4ccc(C)cc4)ncnc32)c1
3.81

Same thing, different compound: CC(C)c1ccc(Nc2nccc(-c3cnn4ncccc34)n2)cc1
3.66

Same thing, different compound: COc1cc2ncnc(Nc3ccc(C)c(O)c3)c2cc1OC
15.3

Same thing, different compound: Nc1ccc(C#Cc2cncnc2Nc2ccc(OCc3cccc(F)c3)c(Cl)c2)cc1
3.78

Same thing, different compound: Cc1ccc(O)cc1Nc1ccnc2ccc(S(C)(=O)=O)cc12
76.2

Same thing, different compound: NS(=O)(=O)c1cccc(Nc2cc(-c3ccc(F)cc3)n[nH]2)c1
6.05
